Sourced from PubChem BioAssay (NCI)

tested on: BT-549 breast; test: NCI tumour cell line growth inhibition, 48 h
TGI reference

Cc1nc(/N=C(\N)NC(=O)Nc2ccccc2Cl)sc1C : 10.3 µM
COc1cc2c3c(n(C)c(=O)c2cc1OC)-c1cc2c(cc1/C3=C\CCCBr)OCO2 : > 51.9 µM
CCOC(=O)c1c(C)n2c(=O)cc(C)c3c(OC(C)=O)c(OC(C)=O)cc1c32 : 46.1 µM
N#CC(C#N)=C(N)/C(C#N)=C/c1cc(O)c(O)c(Br)c1 : > 100 µM
O=C(CCc1ccc(O)c(O)c1)NCCc1cc(OCc2ccccc2)cc(OCc2ccccc2)c1 : 20.2 µM

In the following, a different molecule is considered.
Request: Find the recorded TGI belonging to COc1cc([C@@H]2c3cc4c(cc3[C@@H](O[C@@H]3O[C@@H]5CO[C@@H](c6cccs6)O[C@H]5[C@H](O)[C@H]3O)[C@H]3COC(=O)[C@H]23)OCO4)cc(OC)c1O and report it.
Result: 4.37 µM

---

tested on: HCT-116 colon; test: NCI tumour cell line growth inhibition, 48 h
RESULT TYPE: TGI

Some molecules with known TGI results, for comparison:
C[C@H]1CC[C@@H]2[C@@H](C)[C@H]3[C@H](C[C@H]4[C@@H]5CC=C6C[C@@H](O)CC[C@]6(C)[C@H]5C[C@H](O)[C@]34C)N2C1 : > 100 µM
CC(=O)O[C@H]1CC[C@@]2(C)C(=CC[C@@H]3[C@@H]2CC[C@]2(C)C(=N/O)/C(=C/c4ccc([N+](=O)[O-])cc4)C[C@@H]32)C1 : > 100 µM
COc1c2c(cc3c(CCc4ccccc4)cc(=O)oc13)CCC(C)(C)O2 : > 100 µM
COc1cc(C(C)c2cc3c(cc2OCCCCOc2cc4c(cc2C(C)c2cc(OC)c(OC)c(OC)c2)OCO4)OCO3)cc(OC)c1OC (centres undefined) : > 100 µM
CC[O-].Cc1ccc2cccc([O-])c2n1.Cc1ccc2cccc([O-])c2n1.Cc1ccc2cccc([O-])c2n1.[Ti+4] : > 100 µM

Request: Checklist item: TGI tested on HCT-116 colon, entry COc1ccccc1S(=O)Nc1ccccc1 (centres undefined) , value?
Result: > 100 µM

Request: Checklist item: TGI tested on HCT-116 colon, entry CCN(CC)Cc1nc(C2CCC([N+](=O)[O-])O2)no1 (centres undefined) , value?
Result: 60.4 µM

Request: Checklist item: TGI tested on HCT-116 colon, entry CCOc1ccc(N=Nc2ccc3oc(=O)c(C(=O)Nc4ccc(OC)cc4)cc3c2)cc1 , value?
Result: 26.2 µM

Request: Checklist item: TGI tested on HCT-116 colon, entry CC(C)CC(=O)NC(NC(C)C)(C(F)(F)F)C(F)(F)F , value?
Result: > 100 µM

Request: Checklist item: TGI tested on HCT-116 colon, entry O=C1C(Cl)=C(Nc2cccc(O)c2)C(=O)N1c1ccc(Cl)c(Cl)c1 , value?
Result: 33.9 µM

Request: Checklist item: TGI tested on HCT-116 colon, entry Cc1ccc(-n2c(Cn3nnc(-c4cccnc4)n3)nn(C3OC(COC(=O)c4ccccc4)C(OC(=O)c4ccccc4)C3OC(=O)c3ccccc3)c2=S)cc1 (centres undefined) , value?
Result: > 100 µM

Request: Checklist item: TGI tested on HCT-116 colon, entry COc1ccc(C2=C(c3cc(OC)c(OC)c(OC)c3)C(=O)CC2)cc1 , value?
Result: > 100 µM
